Where a name gives a salt, the structure may show the parent alone.
Exercise: state measured melting point for each of the compounds provided.

I am curious: what melting point value has been reported for CCSCc1cc(O)cc2cc(-c3ccc(O)cc3)oc12 ?
181 to 183 °C

Param item: Cc1cc(O)ccc1-c1cc2cc(O)ccc2o1
167 to 169 °C

Query O=C(O)c1cc(O)cc2cc(-c3ccc(O)cc3)oc12 next
260 to 262 °C

Queued: CCCc1cc(O)cc2cc(-c3ccc(O)cc3)oc12 (as salt: HCl)
178 to 180 °C

What about this compound? Oc1ccc2oc(-c3ccc(O)c(F)c3)cc2c1
218 to 222 °C
